test system: HEK293FT dCK*-only; test: relative growth in counter assay (no AraC = 100%, AraC + DMSO = 0%); higher = more growth rescue independent of IKZF1; conditions: compound concentration: 5 uM; AraC concentration: 0.3 uM; overnight pretreatment + 4 days AraC
attribute-measured: relative growth in counter assay (%)

N#Cc1nn(-c2c(Cl)cc(C(F)(F)F)cc2Cl)c(N)c1S(=O)C(F)(F)F (configuration not stated)	7.45
CC(C)[C@]12O[C@H]1[C@@H]1O[C@]13[C@]1(O[C@H]1C[C@H]1C4=C(CC[C@@]13C)C(=O)OC4)[C@@H]2O [Triptolide]	-34
Oc1cc(Cl)ccc1Oc1ccc(Cl)cc1Cl	-4.14
COc1ccc(C[C@H]2NC[C@H](O)[C@H]2OC(C)=O)cc1	-34.7
c1ccc2c(c1)Nc1ccccc1S2	-0.21
Fc1ccc(C(OCCN2CCN(CCCc3ccccc3)CC2)c2ccc(F)cc2)cc1	-32.4
C[C@]12CCC3C(CC[C@]4(O)C[C@@H](O)CC[C@]34C=O)[C@@]1(O)CCC2C1=CC(=O)OC1 (some centres not stated) [Strophantidin]	-32.9
CCCCCCCCCCCCCCCC[n+]1ccccc1	-34.4
CCO[C@H]1O[C@@H]2O[C@@]3(C)CC[C@H]4[C@H](C)CC[C@@H]([C@H]1C)[C@@]24OO3	-27.3
COc1ccc2c(c1)/C(=C/c1cnc[nH]1)C(=O)N2	-21.6
C[C@@]1(CO)[C@H](O)CC[C@@]2(C)[C@H]1CC[C@H]1C[C@@H]3C[C@@]12CC[C@]3(O)CO	-34.1
O=C(CCCN1CCC2(CC1)C(=O)NCN2c1ccccc1)c1ccc(F)cc1	-1.41
COC[C@H]1OC(=O)c2coc3c2[C@@]1(C)C1=C(C3=O)[C@@H]2CCC(=O)[C@@]2(C)C[C@H]1OC(C)=O	0.96
C[C@@]12C(=O)OC(=O)[C@]1(C)[C@H]1CC[C@@H]2O1	3.7
CCCCCCCCCCC(=O)O[C@H]1CC[C@H]2[C@@H]3CCC4=CC(=O)CC[C@]4(C)[C@H]3CC[C@]12C [Testosterone (undecanoate)]	4.31
O=C(CCCN1CCC(n2c(=O)[nH]c3ccccc32)CC1)c1ccc(F)cc1	4.87
CC(=O)OC[C@]12CCC(C)=C[C@H]1O[C@@H]1[C@H](O)[C@@H](OC(C)=O)[C@@]2(C)[C@@]12CO2	-34.2
